- TEST SYSTEM: KIX domain of CBP (UniProt P45481 586-665)
- Sequence (P45481 586-665): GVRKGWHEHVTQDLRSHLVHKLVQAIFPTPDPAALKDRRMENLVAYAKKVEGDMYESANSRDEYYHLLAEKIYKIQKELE
- ASSAY PROCEDURE: fluorescence polarisation; equilibrium fluorescence anisotropy; KIX titrated into N-terminally FITC-labelled pKID peptide; biophysical buffer and conditions as in the accompanying article (ref. 42); KdEqub
- ASSAY CONTEXT: both partners purified
Non-standard residues stand in square brackets, D forms with d. No end group written: not given here. *: point of attachment. FITC = O=C1OC2(c3ccc(O)cc3Oc3cc(O)ccc32)c2ccc(NC(=S)*)cc21; pS = N[C@@H](COP(=O)(O)O)C(=O)O
EXPERIMENTAL READOUT: Kd (nM)

{FITC}-DSVTDSQKRREILSRAP[pS]YRKILNDLSSDAP (peptide, UniProt P15337-1 116-146, looked up, source: synthetic peptide, bought: Biomatik) [FITC-pKID R131A] :: 1230
{FITC}-DSVTDSQKRAEILSRRP[pS]YRKILNDLSSDAP (peptide, UniProt P15337-1 116-146, looked up, source: synthetic peptide, bought: Biomatik) [FITC-pKID R125A] :: 220
{FITC}-DSVTDSQKRREILSRRP[pS]YRKIANDLSSDAP (peptide, UniProt P15337-1 116-146, looked up, source: synthetic peptide, bought: Biomatik) [FITC-pKID L138A] :: 6300

1. {FITC}-DSVTDSQKRREILSRRP[pS]YRKILNDLASDAP (peptide, UniProt P15337-1 116-146, looked up, source: synthetic peptide, bought: Biomatik) [FITC-pKID S142A]
2. {FITC}-DSVTDSQKRREIASRRP[pS]YRKILNDLSSDAP (peptide, UniProt P15337-1 116-146, looked up, source: synthetic peptide, bought: Biomatik) [FITC-pKID L128A]
Enquiry: I'm curious whether 1 or 2 has the smaller Kd number. Which is it? Reply with the label of the item you choose.
Return: 1
(1: 120 nM, 2: 2490 nM)
